# Test system: MS2 coat protein
# Assay protocol: apparent KD of MS2 coat protein; designed switch direction (-1 OFF switch, 1 ON switch): -1; higher = weaker reporter binding
# Run parameters: input ligand: FMN 200 uM
Lab note: class by apparent KD of MS2 coat protein, see lower range = under 30 nM, middle range = from 30 nM up to 100 nM, upper range = 100 nM and over

Please review the following examples before continuing.
UACAUGAGGAUCACCCAUGUUUUGUCGUGUAUGGUAUUUAUCUAGGAUAUCAUUUUAUUAAGUUAUGAGAAGGAGAAUAUUAAU [JMF's solution 90] (Eterna round: R96, puzzle: Exclusion NG 3) ... middle range
CGGUGUAACGUAGGAUAUCAUCGCAACUGACGUUGAGAAGGACGACAUGAGGAUCACCCAUGUGAUUUCUCAAUAUUAUACAUC [Prohibition 85 - Jieux - Exclusion NG 1] (Eterna round: R96, puzzle: Exclusion NG 1) ... middle range
CUAUUUUUCGCAGGAUAUGCAUCUCCUUUAUUAGCAGAAGGGCGUUAAACAUGAGGAUCACCCAUGUAUUGUGGUGCUUUUUUC [JR_ExcNG1_Sub059] (Eterna round: R96, puzzle: Exclusion NG 1) ... upper range
UAAUAGGCAGGAUAUACAUGAGGAUCACCCAUGUAAAUUUUUCGUUUAACUUGAAUGUGUAGAAGGGCCAUAAA [Ex3 #53] (Eterna round: R97, puzzle: Exclusion 3) ... lower range
CAAUUCAGAGGAUAUGCGCAUAGAUAAGACUUUUUUUCUUAACAUGAGGAUCACCCAUGUAGAAGGCUGUAACC [Ex2 #63] (Eterna round: R97, puzzle: Exclusion 2) ... lower range

Lookup: Band assignment needed for CCGUCGAUAGGAUAUACUCCAAGCGAUGGGUGAACCUUUGGACUUGAGGAUCACCCAAGUAGAAGGAUUGACUU [Aorbete] (Eterna round: R97, puzzle: Exclusion 2) please.
Found: upper range

Lookup: Form: Item = AACAUGUUAGGAUAUGGUCCUGUGCCACAUGGAGGUUUAGGUUAGAAGGGACAUGAGGAUCACCCAUGUUAAAU [Eternabot (L2) Solution 39] (Eterna round: R97, puzzle: Exclusion 4) ; Class = ?
Found: upper range

Lookup: Determine which band this sequence sits in: GCAGAAUGAGUUAGGAUAUGAUGAUUUUUUUUAUAUCAGAAGGAACUUGAGGAUCACCCAAGUUAAGAUAGGGU [JR_BMEx4_Sub067] (Eterna round: R97, puzzle: Brourd's mod of Exclusion 4)
Found: middle range

Lookup: Band assignment needed for AGUCAGUCAGGAUAUCAAAUCCGUGGACCUUACGAUGCGGCUGAGAAGGGACAUGAGGAUCACCCAUGUUGGGU [Eternabot (L2) Solution 27] (Eterna round: R97, puzzle: Exclusion 4) please.
Found: middle range
